# testedSystem: spotted gar BRS3 (sBRS3)
# methodDescription: Radioligand binding (competition)
# Design: species or system Lepisosteus oculatus
# recordedConditions: 50 pM [125I]-Tyr-NMB; transfected HEK293 cells, 1 h 21°C, pH 7.4; mean ± SE, at least three experiments
readoutLabel: IC50

Answer with the recorded IC50 of GSHWAVGHLM-NH2 [GRP, gastrin-releasing peptide] only. 0.54 nM

###

# testedSystem: turtle BRS3 (tBRS3)
# methodDescription: Radioligand binding (competition)
# Design: species or system Chrysemys picta
# recordedConditions: 50 pM [125I]-Tyr-NMB; transfected HEK293 cells, 1 h 21°C, pH 7.4; mean ± SE, at least three experiments
readoutLabel: IC50 (nM)
One number for each entry, in nM.

Report measured IC50 on turtle BRS3 (tBRS3); entry: GSHWAVGHLM-NH2 [GRP, gastrin-releasing peptide] 0.28

###

# testedSystem: placental mammalian BRS3 (hBRS3, mBRS3, and aBRS3)
# methodDescription: Radioligand binding, placental mammals pooled
# Set-up: species or system human, mouse, aardvark
# recordedConditions: BRS3s in placental mammals
pKi: −log10 of the molar value.
readoutLabel: pKi

Check the records and state pKi for GSHWAVGHLM-NH2 [GRP, gastrin-releasing peptide] < 6.00

###

# testedSystem: chicken BRS3 (cBRS3)
# methodDescription: Radioligand binding (competition)
# Set-up: species or system Gallus gallus
# recordedConditions: 50 pM [125I]-Tyr42-GRP; transfected HEK293 cells, 1 h 21°C, pH 7.4; mean ± SE, at least three experiments
readoutLabel: IC50
Remember to put the unit after the number in your answer.

Look up and report measured IC50 for this entry: GSHWAVGHLM-NH2 [GRP, gastrin-releasing peptide] 0.15 nM

###

# testedSystem: spotted gar BRS3 (sBRS3)
# methodDescription: Radioligand binding (competition)
# Design: species or system Lepisosteus oculatus
# recordedConditions: 50 pM [125I]-Tyr42-GRP; transfected HEK293 cells, 1 h 21°C, pH 7.4; mean ± SE, at least three experiments
# Method: HEK293 cells were seeded in a 10-cm tissue culture dish at a density of 10^6 cells per dish and grown overnight at 37°C in growth medium. The following morning, 5 μg of different species’ BRS3 plasmids were transfected. […] After the incubation, 100 μl aliquots were added to 1.5-ml microfuge tubes, which contained 100 μl of binding buffer to determine the total radioactivity. […] The amount of radioactivity bound to the cells was measured in a Cobra II Gamma counter (Packard Instruments). […]
readoutLabel: pIC50
Give bare numbers, as −log10 of the molar value.

Consider the substance GSHWAVGHLM-NH2 [GRP, gastrin-releasing peptide] . State its measured pIC50. 9.77
